assay-system: T1, human parathyroid hormone type 1 receptor (PTH1 receptor) (human, UniProt Q03431 27-593)
T1 construct: whole, on cells; also called human PTH1 receptor
T1 sequence (looked up): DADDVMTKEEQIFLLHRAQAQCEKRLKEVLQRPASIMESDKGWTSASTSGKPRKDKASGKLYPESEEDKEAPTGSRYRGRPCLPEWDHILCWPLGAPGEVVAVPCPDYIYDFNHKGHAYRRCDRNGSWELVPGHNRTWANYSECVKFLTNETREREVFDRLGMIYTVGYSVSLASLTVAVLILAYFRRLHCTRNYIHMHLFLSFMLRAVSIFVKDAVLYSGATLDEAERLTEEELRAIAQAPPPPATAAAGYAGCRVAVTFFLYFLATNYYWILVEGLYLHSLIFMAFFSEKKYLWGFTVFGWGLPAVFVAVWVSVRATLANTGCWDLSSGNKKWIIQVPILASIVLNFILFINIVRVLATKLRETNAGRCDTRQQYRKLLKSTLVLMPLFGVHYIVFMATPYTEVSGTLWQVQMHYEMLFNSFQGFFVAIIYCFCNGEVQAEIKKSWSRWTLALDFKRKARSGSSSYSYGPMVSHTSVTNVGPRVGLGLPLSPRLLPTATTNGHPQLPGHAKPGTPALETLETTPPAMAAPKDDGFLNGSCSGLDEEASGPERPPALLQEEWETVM
method-notes: saturation binding, HEK293 membranes, filtration
No end group written: not given here. *: point of attachment. 125I = [125I]*
measured-quantity: pKd
Answers are plain numbers, as −log10 of the molar value.

Prompt: Respond only with pKd recorded for DAAFRERARLLAALERRHWLNSY(125I)MHKLLVLDAP (2000 Ci/mmol; also called radiolabeled TIP(7-39)) [[^125I]TIP(7-39)]
Response: 8.89

The measurements presented in this section are drawn from patent US20030032096A1.
